Recorded values, source PubChem BioAssay (NCATS).

- ASSAY: qHTS of pediatric cancer cell lines to identify multiple opportunities for drug repurposing: Primary screen for NB1643 cells (AID 1347099); further: nearly all actives have a fitted effect of over 50% in size
- TEST CONTEXT: NB1643 neuroblastoma viability, CellTiter-Glo luminescence, 48 h; series mostly up to 46 µM
Results filed as inconclusive are left out. Calls of active or inactive are those of the source. The call rests on the fitted dose curve; in most records, active means well fitted cell-killing curve with a large enough effect; inconclusive means small, poorly fitted or top-dose-only effect; inactive means no such curve, though single readings can be large or run the other way.
Labels: active, inactive

MOLECULE | CLASS NAME
CCNC(=O)c1noc(-c2cc(C(C)C)c(O)cc2O)c1-c1ccc(CN2CCOCC2)cc1 | active
CCN1C[C@H](C)n2c(c(O)c3c(=O)n(Cc4ccc(F)c(Cl)c4)nc(C(=O)NC)c32)C1=O | inactive
CN[C@@H]1CN(c2ccc3c(=O)c(C(=O)O)cn(-c4nccs4)c3n2)C[C@@H]1OC | active
CN[C@@H]1[C@@H](O)[C@@H](O[C@@H]2[C@@H](O)[C@H](O[C@H]3O[C@H](CN)[C@@H](O)[C@H](O)[C@@H]3O)[C@@H](N)C[C@@H]2NC(=O)[C@@H](O)CN)OC[C@]1(C)O | inactive
CC(C)C[C@@H](C(=O)N[C@H](C(=O)OC1CCCC1)c1ccccc1)[C@H](O)C(=O)NO | active
OC(c1cc(C(F)(F)F)nc2c(C(F)(F)F)cccc12)C1CCCCN1 (stereo not drawn) | inactive
COc1nc(C)cnc1NS(=O)(=O)c1cccnc1-c1ccc(-c2nnco2)cc1 | inactive
CC(=O)N1CCN(c2ccc(OCc3nn(C)c(C)c3-c3cccc4c(CCCOc5cc(C)c(Cl)c(C)c5)c(C(=O)O)n(Cc5cccnc5)c34)cc2)CC1 | active

* * *

- ASSAY: qHTS of pediatric cancer cell lines to identify multiple opportunities for drug repurposing: Primary screen for SJ-GBM2 cells (AID 1347091)
- TEST CONTEXT: SJ-GBM2 viability, CellTiter-Glo luminescence, 48 h; series mostly up to 46 µM
Records with an inconclusive call do not appear. The source made the active and inactive calls. Calls come from the whole dose curve; as a rule, active = well fitted cell-killing curve with a large enough effect; inconclusive = small, poorly fitted or top-dose-only effect; inactive = no such curve, though single readings can be large or run the other way.
Labels: active, inactive

MOLECULE | CLASS NAME
CC1CNc2c(cccc2S(=O)(=O)N[C@@H](CCCN=C(N)N)C(=O)N2CC[C@@H](C)C[C@@H]2C(=O)O)C1 (stereo partly specified) | active
C[C@@H]1O[C@@H](O[C@H]2CC[C@@]3(C)[C@H](CC[C@@H]4[C@H]3C[C@@H](O)[C@]3(C)[C@@H](C5=CC(=O)OC5)CC[C@]43O)C2)C[C@H](O)[C@@H]1O[C@H]1C[C@H](O)[C@H](O[C@H]2C[C@H](O)[C@@H](O)[C@@H](C)O2)[C@H](C)O1 (stereo in doubt) | active
CC[C@@H]([C@H](C)O)n1ncn(-c2ccc(N3CCN(c4ccc(OCC5CO[C@@](Cn6cncn6)(c6ccc(F)cc6F)C5)cc4)CC3)cc2)c1=O (stereo partly specified) | active
CC[C@]1(O)C[C@H]2CN(CCC3=c4ccccc4=N[C]3[C@@](C(=O)OC)(c3cc4c(cc3OC)N(C)[C@H]3[C@@](O)(C(N)=O)[C@H](O)[C@]5(CC)C=CCN6CC[C@]43[C@@H]65)C2)C1 | active
CN1C(=O)C[C@H](C(=O)N[C@@H](Cc2cnc[nH]2)C(=O)N2CCC[C@@H]2C(N)=O)NC1=O | inactive
CNc1nc(-c2ccc3c(N)n[nH]c3c2)cc(N2C[C@@H](C(=O)NC3CCCCC3)CC[C@@H]2C)n1 | active
CC(NCCc1ccc(O)cc1)C(O)c1ccc(O)cc1 (stereo unspecified) | inactive
CC[C@H](C=C[C@@H](C)[C@H]1CC[C@H]2[C@@H]3CC=C4C[C@@H](O)CC[C@]4(C)[C@@H]3CC[C@]12C)C(C)C | inactive
N[C@@H](CC(=O)N1CCn2c(nnc2C(F)(F)F)C1)Cc1cc(F)c(F)cc1F | inactive
COc1cc2c(cc1OC)[C@@H]1Cc3ccc(OC)c(OC)c3CN1CC2 | inactive
CCC[C@@H](NC(=O)[C@@H]1[C@H]2CCC[C@@H]2CN1C(=O)[C@@H](NC(=O)[C@@H](NC(=O)c1cnccn1)C1CCCCC1)C(C)(C)C)C(=O)C(=O)NC1CC1 | active
O=C(O)C1=CC(O)C(O)[C@H](O)C1 (stereo partly specified) | inactive
CC(C)(C)c1[nH]cnc1C=c1[nH]c(=O)c(=Cc2ccccc2)[nH]c1=O | active
CCNC(=O)c1noc(-c2cc(C(C)C)c(O)cc2O)c1-c1ccc(CN2CCOCC2)cc1 | active
COC1CCC(C(=O)c2ccc3nc4c(cc3c2)CCCO4)CC1 (stereo unspecified) | active
Oc1ccc(C=Cc2cc(O)cc(O)c2)cc1 | active
